Origin of measurements: patent US20230203155A1

biological target: T1, human ROR1-hFc fusion protein (extracellular domain) (human); assay: SPR, ROR1-hFc on chip
T1 construct: Whole entry 'human ROR1-Fc (CHO)'; also called hROR1; huROR1-Fc
T1 sequence (chain, as listed by the source limits assumed): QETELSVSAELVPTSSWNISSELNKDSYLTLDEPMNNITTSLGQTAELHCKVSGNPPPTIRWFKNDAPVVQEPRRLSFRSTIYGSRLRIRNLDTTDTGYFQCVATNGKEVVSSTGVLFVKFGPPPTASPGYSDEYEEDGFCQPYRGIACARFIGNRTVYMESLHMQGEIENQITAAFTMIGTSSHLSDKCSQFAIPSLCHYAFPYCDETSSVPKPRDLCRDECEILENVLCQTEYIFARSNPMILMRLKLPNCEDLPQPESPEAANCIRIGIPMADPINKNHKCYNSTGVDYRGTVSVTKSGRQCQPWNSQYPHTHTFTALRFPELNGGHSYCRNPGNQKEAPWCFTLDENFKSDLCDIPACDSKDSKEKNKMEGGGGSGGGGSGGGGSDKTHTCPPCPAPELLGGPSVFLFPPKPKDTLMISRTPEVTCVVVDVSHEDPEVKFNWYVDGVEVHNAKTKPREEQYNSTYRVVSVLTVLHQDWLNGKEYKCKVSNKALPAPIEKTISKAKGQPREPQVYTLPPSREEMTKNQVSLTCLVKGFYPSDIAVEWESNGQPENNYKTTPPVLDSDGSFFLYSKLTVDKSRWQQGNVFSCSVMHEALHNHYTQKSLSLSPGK
METRIC: kon (M⁻¹ s⁻¹)
Kindly provide the numeric value in M⁻¹ s⁻¹ only, without the unit symbol.

Find the recorded kon belonging to P3A1-P3A1-S-mal-vcMMAE (VNAR, C-terminal thiol conjugated to MC vc PAB MMAE) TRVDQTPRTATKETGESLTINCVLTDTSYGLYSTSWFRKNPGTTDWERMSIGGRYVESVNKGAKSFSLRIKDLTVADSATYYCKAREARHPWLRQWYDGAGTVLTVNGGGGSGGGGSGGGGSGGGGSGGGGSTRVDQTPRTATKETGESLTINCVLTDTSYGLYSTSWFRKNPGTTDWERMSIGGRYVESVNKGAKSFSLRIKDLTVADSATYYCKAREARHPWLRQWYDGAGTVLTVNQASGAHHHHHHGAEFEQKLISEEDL and report it. 4.96e+06

Check P3A1-[G4S]5-P3A1 his myc (VNAR, VNAR homodimer by genetic fusion; also called P3A1-P3A1; P3A1 dimer) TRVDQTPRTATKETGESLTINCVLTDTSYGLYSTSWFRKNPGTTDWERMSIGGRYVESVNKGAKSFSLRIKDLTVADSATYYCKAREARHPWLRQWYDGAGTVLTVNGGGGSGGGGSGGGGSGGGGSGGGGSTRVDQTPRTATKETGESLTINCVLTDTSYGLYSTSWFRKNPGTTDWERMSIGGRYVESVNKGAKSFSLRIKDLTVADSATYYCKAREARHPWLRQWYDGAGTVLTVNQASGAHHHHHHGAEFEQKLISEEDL too. 1.86e+06

Check P3A1-P3A1-Ox-MMAE (VNAR, C-terminal aminoxy oxime-linked to benzaldehyde PEG4 MMAE) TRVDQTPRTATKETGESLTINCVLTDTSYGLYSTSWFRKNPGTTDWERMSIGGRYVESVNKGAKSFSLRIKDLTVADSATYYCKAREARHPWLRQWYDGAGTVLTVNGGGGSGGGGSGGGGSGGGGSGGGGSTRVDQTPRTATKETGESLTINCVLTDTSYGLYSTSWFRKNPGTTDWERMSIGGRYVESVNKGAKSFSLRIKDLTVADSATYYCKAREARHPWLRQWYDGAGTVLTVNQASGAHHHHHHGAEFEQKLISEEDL too. 4.2e+06

Another binder: P3A1-P3A1-Ox-vcMMAE (VNAR, C-terminal aminoxy oxime-linked to benzaldehyde PEG2 vc PAB MMAE) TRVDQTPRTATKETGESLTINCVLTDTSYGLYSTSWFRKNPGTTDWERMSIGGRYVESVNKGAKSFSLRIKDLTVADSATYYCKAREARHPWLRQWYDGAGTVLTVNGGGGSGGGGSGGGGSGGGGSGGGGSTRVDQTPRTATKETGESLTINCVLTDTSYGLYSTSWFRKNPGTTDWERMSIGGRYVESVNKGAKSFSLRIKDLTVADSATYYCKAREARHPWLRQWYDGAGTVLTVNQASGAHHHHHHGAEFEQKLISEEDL 2.07e+06
